The reported numbers originate from ChEMBL document CHEMBL1156904.

Field: clearance. Provide a value for each of the compounds that follow.
ASSAY_PROTOCOL: Clearance in Beagle dog at 0.5 mg/kg, iv and 1 mg/kg, po
Assay type: ADME, organism-based, Canis lupus familiaris
DETAILS: in vivo

**Q:** Specify reported clearance for the compound shown: "CCCCCOC(=O)N1CCN(C(=O)[C@H](CCC(=O)O)NC(=O)c2cc(N3CCC(C(=O)N4CCCC4)CC3)cc(-c3ccccc3)n2)CC1"
**A:** 2 mL/min/kg

**Q:** Using known records, supply clearance for "CCCCOC(=O)N1CCN(C(=O)[C@H](CCC(=O)O)NC(=O)c2cc(N3CCC(C(=O)N4CCCC4)CC3)cc(-c3ccccc3)n2)CC1"
**A:** 3 mL/min/kg
